Below: a set of entries, each annotated with reported growth inhibition.
experiment: NCI Yeast Anticancer Drug Screen. Data for the mec2-1 strain (AID 157); conditions: S. cerevisiae mec2-1 strain, at 50.0 µM, hits give high values
Compounds without any hit were thinned out: in the full panel of roughly 79,000, 15% have a hit.
# value in %; strip the unit string

# annotated cases, reported growth inhibition shown
compound: c1cnc(NC(Nc2cnccn2)C2CCCCC2)cn1
growth inhibition, %: -1.55
//
compound: COc1ccc2ccccc2c1Cc1c(O)ccc2ccccc12
growth inhibition, %: -4.55
//
compound: COc1ccc(CN)cc1
growth inhibition, %: -9.6

Task: Quick one: growth inhibition of CCCCI(O)OS(=O)(=O)c1ccc(C)cc1 ?
Result: 3.1

Task: Quick one: growth inhibition of COc1ccc(CCN2C(=O)c3cccc4c(Br)ccc(c34)C2=O)cc1 ?
Result: 1.3

Task: Quick one: growth inhibition of Cc1cc2c(=O)cc(-c3ccccc3)oc2c(C(N)=O)c1C ?
Result: 19.9

Task: Quick one: growth inhibition of CCNC(=O)NS(=O)(=O)c1ccc(Sc2ccc(C)cc2)nc1 ?
Result: -7.3

Task: Quick one: growth inhibition of Cn1c(=O)nc2n(C)c3ccccc3cc-2c1=O ?
Result: -12.4

Task: Quick one: growth inhibition of Cn1c2c(c3ccccc31)CCN=C2C1CCCOC1=O (stereo not given) ?
Result: -54.2

Task: Quick one: growth inhibition of O=C(O)/C=C\CCCCC(=O)O ?
Result: 0.95

Task: Quick one: growth inhibition of CC1(C)C(CC(=O)O)CCCC1CC(=O)O (stereo not given) ?
Result: 0.95

Task: Quick one: growth inhibition of O=[N+]([O-])c1ccc2c(c1)Sc1ccccc1N2CCCCCl ?
Result: -15.8

Task: Quick one: growth inhibition of O=c1cc(-c2ccccc2Cl)[nH]c2cc3c(cc12)OCO3 ?
Result: -26.3

Task: Quick one: growth inhibition of COc1ccccc1C(C)C ?
Result: -3.8
